Data credit: a melting point compilation (Tetko et al.; mined from patent text by program, amines drawn as free bases though some values may be those of a salt)

melting point values by entry

Please review the entries below; each comes with its answer.
CCNc1cc(Oc2ccc(N)cc2)ncn1 = 143 to 145 °C
Clc1cc(CCc2ccccn2)c2oc(-c3cccc4cccnc34)nc2c1 = 110 to 111 °C
COC(=O)/C=C/c1ccc(CCC(C)NCC(O)c2cccc(Cl)c2)cc1 (centres undefined) = 87 to 89 °C
CC1=CN2CCS(=O)(=O)N=C2C(c2ccc(Oc3ccccc3)cc2)=N1 = 92 to 92.5 °C
CC(=O)N(C)c1cccc2c1nc(-c1c(F)cccc1F)n2Cc1c(F)cccc1F = 155 to 156 °C
COCCn1c(=O)ccc2cnc(Nc3ccccc3)nc21 = 179 to 180 °C
CCOC(=O)c1ccc(CCC(=O)O)cc1 = 108 to 110 °C
Cc1cccc(OC2SCC(O)C(O)C2O)n1 (centres undefined) = 54 °C
CC(=S)NCC1CN(c2ccc3c(c2)CC(C(C)(C)C)N3C=O)C(=O)O1 (centres undefined) = 219 to 221 °C
C=CCN(CC=C)C(=O)n1cnc(S(=O)CC)n1 (centres undefined) = 41 to 43 °C

Query string: Please give the documented melting point of COC(=O)Cn1c(=O)sc2cc(Br)c(Cl)cc21
Result string: 209 to 210 °C

Query string: Please give the documented melting point of CCOC(=O)N1CCC(=C2c3ccccc3CCn3c(CO)cnc32)CC1
Result string: 192 °C

Query string: Please give the documented melting point of COc1cc(OC)nc(Sc2[nH]nc(C)c2[N+](=O)[O-])n1
Result string: 175 to 176 °C

Query string: Please give the documented melting point of O=C(C=Cc1ccc(F)cc1)C(c1ccccc1)c1ccccc1
Result string: 122 to 124 °C

Query string: Please give the documented melting point of CN1CCC(N(C)c2n[nH]c(-c3ccc(Cl)cc3)c2-c2ccncc2)CC1
Result string: 260 to 261 °C

Query string: Please give the documented melting point of CCOc1ccc(-c2nc3n(c2-c2ccc(OCC)cc2)CCC3)cc1
Result string: 135 to 138 °C

Query string: Please give the documented melting point of Nc1nc(OCCC2CCCCC2)c2[nH]cnc2n1
Result string: 210 °C

Query string: Please give the documented melting point of CC#CCOc1ccc(S(=O)(=O)NC(C(=O)O)c2ccc(OCCN3CCCC3)cc2)cc1 (centres undefined)
Result string: 245 to 247 °C

Query string: Please give the documented melting point of CC(C)(C)c1cc(-c2c[nH]c(S(C)(=O)=O)n2)cc(C(C)(C)C)c1O
Result string: 119 to 120 °C
